Reference source: ChEMBL document CHEMBL3792377

Consider the following compounds; for each one, report its inhibition.
Target: D(2) dopamine receptor (Homo sapiens)
Sequence (P14416 whole entry): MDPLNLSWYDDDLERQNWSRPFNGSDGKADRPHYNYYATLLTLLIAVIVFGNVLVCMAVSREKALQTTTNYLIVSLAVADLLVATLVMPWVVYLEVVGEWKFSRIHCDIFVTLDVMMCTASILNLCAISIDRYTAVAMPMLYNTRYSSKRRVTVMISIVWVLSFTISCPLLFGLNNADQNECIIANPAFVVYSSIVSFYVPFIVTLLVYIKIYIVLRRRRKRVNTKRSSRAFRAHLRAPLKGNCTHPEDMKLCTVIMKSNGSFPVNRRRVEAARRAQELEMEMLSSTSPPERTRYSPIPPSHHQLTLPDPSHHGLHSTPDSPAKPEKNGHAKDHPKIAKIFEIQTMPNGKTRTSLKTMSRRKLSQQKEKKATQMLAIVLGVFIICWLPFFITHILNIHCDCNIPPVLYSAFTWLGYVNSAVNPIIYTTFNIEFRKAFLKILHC
Assay: Displacement of [3H]-Spiperone from human recombinant dopamine D2S receptor expressed in CHO cells at 10 uM relative to control
Type: cell-based

Below, each entry is followed by its recorded inhibition result.
compound_smiles=Fc1ccc2c(CN3CCO[C@H](COc4cccc(Cl)n4)C3)c[nH]c2c1 endpoint_result="< 50%"
compound_smiles=c1ccc(OC[C@@H]2CN(Cc3ncn4ccccc34)CCO2)cc1 endpoint_result="< 50%"
compound_smiles=Clc1ccc(CN2CCO[C@H](CSc3ccccc3)C2)cc1 endpoint_result="< 50%"

Return reported inhibition values for all items listed beneath this line.
1. c1ccc(OC[C@@H]2CN(Cc3ccc4[nH]ccc4c3)CCO2)cc1
2. Cc1ccc(CN2CCO[C@H](CSc3ccccc3)C2)cc1C
3. COc1cc(CN2CCO[C@H](COc3cccc(F)c3)C2)ccc1Cl
4. COc1ccc(CN2CCO[C@H](COc3cccc(F)c3)C2)cc1Cl
5. COc1ccc(CN2CCO[C@H](COc3ccccc3)C2)cc1Cl
6. COc1ccc(CN2CCO[C@H](COc3ccc(F)cc3)C2)cc1
7. Cc1ccc(CN2CCO[C@H](COc3ccccc3)C2)cc1C

Result:
1: 64%; 2: < 50%; 3: < 50%; 4: < 50%; 5: < 50%; 6: 82%; 7: < 50%

Task: Fill in inhibition for record `Clc1ccc2c(CN3CCO[C@H](COc4ccccc4)C3)c[nH]c2c1`
Result: 93%
